Target: CYP2B6 (Homo sapiens, UniProt P20813)
Sequence (P20813 whole entry): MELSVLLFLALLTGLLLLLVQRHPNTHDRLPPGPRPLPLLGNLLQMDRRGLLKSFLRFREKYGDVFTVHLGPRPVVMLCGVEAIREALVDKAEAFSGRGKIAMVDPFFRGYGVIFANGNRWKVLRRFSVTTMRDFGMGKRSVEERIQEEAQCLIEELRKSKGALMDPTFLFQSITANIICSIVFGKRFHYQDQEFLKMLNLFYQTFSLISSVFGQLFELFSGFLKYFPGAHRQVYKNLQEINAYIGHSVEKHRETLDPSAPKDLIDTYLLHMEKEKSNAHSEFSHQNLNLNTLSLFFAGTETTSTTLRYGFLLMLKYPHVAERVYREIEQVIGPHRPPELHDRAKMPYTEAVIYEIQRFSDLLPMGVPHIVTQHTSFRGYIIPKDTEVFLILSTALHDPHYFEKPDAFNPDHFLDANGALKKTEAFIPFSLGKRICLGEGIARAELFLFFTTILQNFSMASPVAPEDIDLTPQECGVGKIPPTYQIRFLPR
Experiment: Inhibition of human CYP2B6 expressed in baculovirus-infected insect microsomes at 1 uM
Assay type: ADME, Microsome
ENDPOINT NAME: inhibition at 1 µM

The examples below pair each entry with its known result.
In [3]: df
Out[3]:
                                smiles_code       endpoint_name  result
0          O=C1CCc2cc(-c3cccnc3)cc3c2N1CCC3  inhibition at 1 µM     27%
1           O=C1CCc2cc(-c3cccnc3)cc3c2N1CC3  inhibition at 1 µM    < 5%
2  O=C1CCc2cc(-c3cncc(-c4cccc(F)c4)c3)cc3c2N1CC3  inhibition at 1 µM    < 5%

Provide measured inhibition at 1 µM value, entry: `COc1cncc(-c2cc3c4c(c2)CCN4C(=O)CC3)c1`
< 5%

* * *

Molecular target: CYP17 (Homo sapiens, UniProt P05093)
Sequence (P05093 whole entry): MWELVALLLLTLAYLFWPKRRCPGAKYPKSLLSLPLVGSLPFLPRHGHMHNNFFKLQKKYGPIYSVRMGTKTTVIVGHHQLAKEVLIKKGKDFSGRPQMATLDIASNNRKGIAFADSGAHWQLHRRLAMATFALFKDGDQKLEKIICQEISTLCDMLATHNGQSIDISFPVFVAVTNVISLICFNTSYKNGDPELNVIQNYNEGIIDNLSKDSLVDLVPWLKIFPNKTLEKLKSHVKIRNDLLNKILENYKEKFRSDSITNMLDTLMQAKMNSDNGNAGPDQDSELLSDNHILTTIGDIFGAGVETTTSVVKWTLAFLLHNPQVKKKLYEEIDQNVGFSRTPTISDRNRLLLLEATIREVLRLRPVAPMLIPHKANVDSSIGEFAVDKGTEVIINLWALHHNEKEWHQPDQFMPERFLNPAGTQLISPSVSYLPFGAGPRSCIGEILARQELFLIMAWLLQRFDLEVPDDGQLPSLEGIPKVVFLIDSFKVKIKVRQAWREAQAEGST
Assay: Inhibition of human CYP17 expressed in Escherichia coli using progesterone substrate at 2 uM
Conditions: recombinant human CYP17 expressed in Escherichia coli, probe progesterone
ENDPOINT NAME: inhibition at 2 µM (%)
Give bare numbers, in %.

Answered cases to consult:
>>> df
                                smiles_code                       subject_of_test       endpoint_name  quantity_unit  quantitative_result
0  O=C1CCc2cc(-c3cncc(-c4cccc(F)c4)c3)cc3c2N1CC3  CYP17 (Homo sapiens, UniProt P05093)  inhibition at 2 µM              %                    7
1    O=C1CCc2cc(-c3cncc4ccccc34)cc3c2N1CCC3  CYP17 (Homo sapiens, UniProt P05093)  inhibition at 2 µM              %                    5
2     O=C1CCc2cc(-c3cncc4ccccc34)cc3c2N1CC3  CYP17 (Homo sapiens, UniProt P05093)  inhibition at 2 µM              %                    6

Next:
Return inhibition at 2 µM for the following compound: `O=C1CCc2cc(-c3cccnc3)cc3c2N1CC3`
6

* * *

target: CYP1A2 (Homo sapiens); assay: Inhibition of human CYP1A2 expressed in baculovirus-infected insect microsomes at 1 uM; format: ADME, Microsome
Sequence (P05177 whole entry): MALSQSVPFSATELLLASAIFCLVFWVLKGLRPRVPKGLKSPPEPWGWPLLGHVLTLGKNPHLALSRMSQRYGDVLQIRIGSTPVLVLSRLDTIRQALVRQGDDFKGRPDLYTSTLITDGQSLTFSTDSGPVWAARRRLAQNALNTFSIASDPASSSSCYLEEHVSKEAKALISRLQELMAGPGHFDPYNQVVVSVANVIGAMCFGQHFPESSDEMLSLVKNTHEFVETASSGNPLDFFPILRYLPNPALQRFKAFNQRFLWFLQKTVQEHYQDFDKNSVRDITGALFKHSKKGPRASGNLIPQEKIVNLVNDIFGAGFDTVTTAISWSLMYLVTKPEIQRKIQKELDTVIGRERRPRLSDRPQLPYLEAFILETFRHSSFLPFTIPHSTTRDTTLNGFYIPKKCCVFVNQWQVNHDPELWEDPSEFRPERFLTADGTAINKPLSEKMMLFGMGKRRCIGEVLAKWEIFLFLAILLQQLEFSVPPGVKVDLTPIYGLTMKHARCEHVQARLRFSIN
I'd be grateful if you could share measured inhibition at 1 µM for these entries.
Answers are plain numbers, in %.

>>> print(df.to_string())
                                smiles_code  quantitative_result
0          O=C1CCc2cc(-c3cccnc3)cc3c2N1CCC3                   41
1     COc1cncc(-c2cc3c4c(c2)CCN4C(=O)CC3)c1                   37
2  O=C1CCc2cc(-c3cncc(-c4cccc(F)c4)c3)cc3c2N1CC3                    9
3           O=C1CCc2cc(-c3cccnc3)cc3c2N1CC3                    8
4    COc1cncc(-c2cc3c4c(c2)CCC(=O)N4CCC3)c1                   47

Below: the item to evaluate.
Look up CYP1A2 (Homo sapiens) data: inhibition at 1 µM of `O=C1CCc2cc(-c3cncc4ccccc34)cc3c2N1CCC3` , then report it.
24

* * *

biological target: aromatase (CYP19) (Homo sapiens); assay: Inhibition of aromatase at 0.5 uM
Sequence (P11511 whole entry): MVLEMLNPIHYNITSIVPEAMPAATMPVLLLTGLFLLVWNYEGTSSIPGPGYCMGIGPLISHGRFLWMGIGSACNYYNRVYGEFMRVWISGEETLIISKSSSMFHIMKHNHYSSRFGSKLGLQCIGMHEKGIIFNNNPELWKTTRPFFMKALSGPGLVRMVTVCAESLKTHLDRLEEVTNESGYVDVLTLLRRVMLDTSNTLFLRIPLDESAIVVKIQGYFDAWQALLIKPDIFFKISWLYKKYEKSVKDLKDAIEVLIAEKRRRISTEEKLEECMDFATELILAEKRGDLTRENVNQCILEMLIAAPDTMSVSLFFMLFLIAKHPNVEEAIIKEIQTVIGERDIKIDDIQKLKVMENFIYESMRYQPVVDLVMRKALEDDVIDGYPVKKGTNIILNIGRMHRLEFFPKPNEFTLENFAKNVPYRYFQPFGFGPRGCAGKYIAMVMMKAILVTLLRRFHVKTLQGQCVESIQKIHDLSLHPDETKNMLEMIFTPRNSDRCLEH
ENDPOINT NAME: inhibition at 0.5 µM (%)
One number for each entry, in %.

// Input: `O=C1CCc2cc(-c3cccnc3)cc3c2N1CCC3` . Output its inhibition at 0.5 µM only.
69

* * *

target: CYP3A4 (Homo sapiens); assay: Inhibition of human CYP3A4 expressed in baculovirus-infected insect microsomes at 10 uM; format: ADME, Microsome
Sequence (P08684 whole entry): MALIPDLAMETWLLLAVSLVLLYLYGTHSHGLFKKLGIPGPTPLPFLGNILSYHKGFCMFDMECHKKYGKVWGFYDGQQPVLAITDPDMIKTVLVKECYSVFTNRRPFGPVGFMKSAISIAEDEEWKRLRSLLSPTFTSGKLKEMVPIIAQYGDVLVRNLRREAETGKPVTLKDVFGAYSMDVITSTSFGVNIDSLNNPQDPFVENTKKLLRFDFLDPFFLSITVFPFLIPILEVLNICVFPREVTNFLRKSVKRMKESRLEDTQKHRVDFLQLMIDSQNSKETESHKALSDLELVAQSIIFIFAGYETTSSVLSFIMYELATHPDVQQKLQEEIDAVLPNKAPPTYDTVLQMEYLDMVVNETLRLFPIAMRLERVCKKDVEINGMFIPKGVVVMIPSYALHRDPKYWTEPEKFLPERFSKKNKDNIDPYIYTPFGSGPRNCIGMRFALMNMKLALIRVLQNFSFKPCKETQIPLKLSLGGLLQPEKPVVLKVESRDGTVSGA
ENDPOINT NAME: inhibition at 10 µM (%)
Numbers only, in %.

In [3]: df
Out[3]:
                              smiles_code  quantitative_result
0   COc1cncc(-c2cc3c4c(c2)CCN4C(=O)CC3)c1                   19
1  COc1cncc(-c2cc3c4c(c2)CCC(=O)N4CCC3)c1                   24

Okay, here is my list. What is inhibition at 10 µM for each of these?
1. O=C1CCc2cc(-c3cccnc3)cc3c2N1CCC3
2. O=C1CCc2cc(-c3cncc(-c4cccc(F)c4)c3)cc3c2N1CC3

[21, 43]

* * *

Assignment: determine reported inhibition at 10 µM for the given molecules.
target: CYP2C9 (Homo sapiens); experiment: Inhibition of human CYP2C9 expressed in baculovirus-infected insect microsomes at 10 uM; format: ADME, Microsome
Sequence (P11712 whole entry): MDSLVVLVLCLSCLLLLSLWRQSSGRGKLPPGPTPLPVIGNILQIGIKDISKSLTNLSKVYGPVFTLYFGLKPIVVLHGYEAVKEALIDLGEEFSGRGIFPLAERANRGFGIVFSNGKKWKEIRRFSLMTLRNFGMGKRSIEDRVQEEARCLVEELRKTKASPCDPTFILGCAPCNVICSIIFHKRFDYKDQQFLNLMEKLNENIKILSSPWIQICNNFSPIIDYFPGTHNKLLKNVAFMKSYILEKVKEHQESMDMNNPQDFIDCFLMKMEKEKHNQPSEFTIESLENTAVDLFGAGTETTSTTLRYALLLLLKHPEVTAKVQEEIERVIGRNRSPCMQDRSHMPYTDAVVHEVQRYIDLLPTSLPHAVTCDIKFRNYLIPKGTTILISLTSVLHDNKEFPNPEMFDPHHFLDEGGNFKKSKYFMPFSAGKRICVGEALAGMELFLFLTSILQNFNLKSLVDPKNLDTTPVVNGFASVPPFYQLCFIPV
One number for each entry, in %.

Would you please look over these solved cases?
>>> print(df.to_string())
                                smiles_code        endpoint_name  quantitative_result
0           O=C1CCc2cc(-c3cccnc3)cc3c2N1CC3  inhibition at 10 µM                   41
1          O=C1CCc2cc(-c3cccnc3)cc3c2N1CCC3  inhibition at 10 µM                   40
2  O=C1CCc2cc(-c3cncc(-c4cccc(F)c4)c3)cc3c2N1CC3  inhibition at 10 µM                   79

Hey, can you go through the list below and give me inhibition at 10 µM for every item?
1. O=C1CCc2cc(-c3cncc4ccccc34)cc3c2N1CCC3
2. COc1cncc(-c2cc3c4c(c2)CCC(=O)N4CCC3)c1
3. COc1cncc(-c2cc3c4c(c2)CCN4C(=O)CC3)c1

1: 97; 2: 63; 3: 42

* * *

Biological target: Cytochrome P450 11B2, mitochondrial (Homo sapiens, UniProt P19099)
Sequence (P19099 whole entry): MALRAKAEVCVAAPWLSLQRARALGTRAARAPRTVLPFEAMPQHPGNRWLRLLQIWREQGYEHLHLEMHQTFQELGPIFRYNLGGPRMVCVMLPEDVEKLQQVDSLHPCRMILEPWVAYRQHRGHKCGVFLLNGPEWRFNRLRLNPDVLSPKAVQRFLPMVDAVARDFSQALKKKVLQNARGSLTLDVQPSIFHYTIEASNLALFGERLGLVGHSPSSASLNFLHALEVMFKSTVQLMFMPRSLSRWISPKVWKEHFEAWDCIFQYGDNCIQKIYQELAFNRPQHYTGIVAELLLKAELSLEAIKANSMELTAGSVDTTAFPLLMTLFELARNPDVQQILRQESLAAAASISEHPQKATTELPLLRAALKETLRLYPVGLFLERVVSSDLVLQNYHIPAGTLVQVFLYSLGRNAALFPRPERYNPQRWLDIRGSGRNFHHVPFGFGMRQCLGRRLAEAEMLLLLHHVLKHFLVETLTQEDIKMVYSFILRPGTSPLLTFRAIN
Experiment: Inhibition of human CYP11B2 expressed in hamster V79 MZh cells assessed as conversion of [4-14C]-11-deoxycorticosterone substrate at 500 nM by HPTLC assay
Type: cell-based
Details: V79MZh
ENDPOINT NAME: inhibition at 0.5 µM (%)
One number for each entry, in %.

>>> df
                                smiles_code                           subject_of_test  quantity_unit  quantitative_result
0  O=C1CCc2cc(-c3cncc(-c4cccc(O)c4)c3)cc3c2N1CC3  Cytochrome P450 11B2, mitochondrial (Homo sapiens, UniProt P19099)              %                   92
1  O=C1CCc2cc(-c3cncc(-c4ccc(F)c(F)c4)c3)cc3c2N1CC3  Cytochrome P450 11B2, mitochondrial (Homo sapiens, UniProt P19099)              %                   89
2  CC(C)Oc1cncc(-c2cc3c4c(c2)CCN4C(=O)CC3)c1  Cytochrome P450 11B2, mitochondrial (Homo sapiens, UniProt P19099)              %                   96

For each of the items listed, what is its inhibition at 0.5 µM?
1. O=C1CCc2cc(-c3cncc4ccccc34)cc3c2N1CC3
2. COc1ccccc1-c1cncc(-c2cc3c4c(c2)CCN4C(=O)CC3)c1

[98, 86]

Hey, quick one: what's inhibition at 0.5 µM for each of these?
1. O=C1CCc2cc(-c3cncc4ccccc34)cc3c2N1CCC3
2. CCOc1cncc(-c2cc3c4c(c2)CCN4C(=O)CC3)c1

[95, 92]

Hi, could you look up inhibition at 0.5 µM for each item in my list?
1. O=C1CCc2cc(-c3cncc(O)c3)cc3c2N1CC3
2. O=C1CCc2cc(-c3cccnc3)cc3c2N1CC3
3. O=C1CCc2cc(-c3cncc(-c4ccc(F)cc4)c3)cc3c2N1CC3
4. O=C1CCc2cc(-n3ccnc3)cc3c2N1CC3

94
90
96
87
